Threshold rule: melting point greater than or equal to 100 °C is 1; below that, 0.

Enquiry: Quick check: does CC(Nc1cccc(F)c1)c1cc(C(=O)NC[C@@H](C)O)cc2ncc(N3CCOCC3)nc12 (single isomer, unassigned) [Compound 338b] have melting point greater than or equal to 100 °C?
Return: 0

Enquiry: Now try CC(Nc1ccc(F)c(F)c1)c1cc(C(=O)NCCCO)cc2ncc(N3CCOCC3)nc12 (stereo not shown) [Compound 280] .
Return: 1

Enquiry: Now consider CCOC(=O)CNC(=O)c1cc(C(C)Nc2cccc(F)c2)c2nc(N3CCOCC3)cnc2c1 (stereo not shown) [Compound 392a] and answer again.
Return: 0

Enquiry: And CNCCOCCN(C)C(=O)c1cc(C(C)Nc2cc(F)cc(F)c2)c2nc(N3CCOCC3)cnc2c1 (single isomer, unassigned) ?
Return: 0

Enquiry: What would you report for CC(Nc1cc(F)cc(F)c1)c1cc(C=NO)cc2ncc(N3CCOCC3)nc12 (single isomer, unassigned) ?
Return: 0

Enquiry: Now the same for COC(=O)c1cc(C(C)Oc2ccc(F)c(F)c2)c2nc(N3CCOCC3)cnc2c1 (stereo not shown)
Return: 1

Enquiry: Check C[C@@H](Nc1cc(F)cc(F)c1)c1cc(C(=O)NCCN(C)C)cc2ncc(N3CCOCC3)nc12 [Compound 184] too.
Return: 1

Enquiry: Would you mind doing CC(Nc1ccc(F)c(F)c1)c1cc(C(=O)NC[C@@H](C)O)cc2ncc(N3CCOCC3)nc12 (single isomer, unassigned) [Compound 346b] as well?
Return: 1

Enquiry: Query CNCCNC(=O)c1cc([C@H](C)Oc2cccc(F)c2)c2nc(N3CCOCC3)cnc2c1 [Compound 123a] next
Return: 1

Enquiry: Can you handle C[C@H](CO)NCc1cc(F)cc(N2CCCC2c2cc(C(=O)N(C)C)cc3ncc(N4CCOCC4)nc23)c1 (mixture of isomers) next?
Return: 0

###

- TESTED ON: kinase enzymes (Homo sapiens)
Please map values of Kd to classes as shown: class 0 (below 8 µM), class 1 (8 µM to below 20 µM), class 2 (20 µM or more)

Enquiry: Lab note: which band did CC(Oc1cccc(F)c1)c1cc(C(=O)N(C)C)cc2ncc(N3CCOCC3)nc12 (single isomer, unassigned) [Compound 339a] land in?
Return: class 1

Enquiry: Follow-up entry: CNCCNC(=O)c1cc(C(C)Nc2cc(F)cc(F)c2)c2nc(N3CCOCC3)cnc2c1 (single isomer, unassigned) [Compound 406a]
Return: class 0

Enquiry: For Cc1c(F)cccc1CN(C)c1cc(C(=O)N(C)[C@@H]2CCNC2)cc2ncc(N3CCOCC3)nc12 [Compound 359] then?
Return: class 2

Enquiry: Input CC(Oc1cccc(F)c1)c1cc(C(=O)NCCO)cc2ncc(N3CCOCC3)nc12 (single isomer, unassigned) [Compound 334b]
Return: class 1

Enquiry: Request: CC(C)NCCNC(=O)c1cc(C(C)Nc2ccc(Cl)c(F)c2)c2nc(N3CCOCC3)cnc2c1 (single isomer, unassigned) [Compound 312b]
Return: class 2

Enquiry: Continue with CC(Nc1ccc(F)c(F)c1)c1cc(C(=O)N2CCN3CCC[C@@H]3C2)cc2ncc(N3CCOCC3)nc12 (single isomer, unassigned) [Compound 347a]
Return: class 2

Enquiry: Item: OCCCNCc1cc(C2CCCN2c2cc(F)cc(F)c2)c2nc(N3CCOCC3)cnc2c1 (single isomer, unassigned) [Compound 102]
Return: class 0

Enquiry: Lookup CC(C)NCCNC(=O)c1cc(C(C)Oc2ccc(F)c(F)c2)c2nc(N3CCOCC3)cnc2c1 (racemic) [Compound 286]
Return: class 1

Enquiry: Now the compound CC(Nc1ccc(F)c(F)c1)c1cc(C(=O)NC[C@@H](C)O)cc2ncc(N3CCOCC3)nc12 (single isomer, unassigned) [Compound 346a]
Return: class 1

Enquiry: Next up: CC(Nc1ccc(F)c(F)c1)c1cc(C(=O)N2CC[C@@H](O)C2)cc2ncc(N3CCOCC3)nc12 (stereo partly shown) [Compound 300]
Return: class 1

Enquiry: What do you have for CC(Nc1cc(F)cc(F)c1)c1cc(C(=O)NS(N)(=O)=O)cc2ncc(N3CCOCC3)nc12 (single isomer, unassigned) [Compound 243b] ?
Return: class 0

Enquiry: Would you kindly repeat that for CC(C)NCCNC(=O)c1cc(C(C)Nc2ccc(F)c(F)c2)c2nc(N3CCOCC3)cnc2c1 (stereo not shown) [Compound 364] ?
Return: class 1

Enquiry: Next compound up: CC(Oc1cccc(F)c1)c1cc(C(=O)O)cc2ncc(N3CCOCC3)nc12 (single isomer, unassigned) [Compound 257c]
Return: class 0

Enquiry: What do we get for CC(Nc1cc(F)c(F)c(F)c1)c1cc(C(=O)NCC(C)(C)O)cc2ncc(N3CCOCC3)nc12 (single isomer, unassigned) [Compound 292b] ?
Return: class 2

Enquiry: Item: CN(C)C(=O)c1cc(N2CCC2c2ccc(F)cc2)c2nc(N3CCOCC3)cnc2c1 (single isomer, unassigned) [Compound 397a]
Return: class 2

###

- TESTED ON: kinase enzymes (Homo sapiens, UniProt P42345)
pKd: −log10 of the molar value.
PROPERTY MEASURED: pKd

Enquiry: Give its pKd value. Item: COC(=O)c1cc(C(C)Nc2cccc(F)c2)c2nc(N3CCOCC3)cnc2c1 (single isomer, unassigned) [Compound 262a]
Return: < 4.52

Enquiry: Please answer likewise for CC(Nc1cc(F)cc(F)c1)c1cc(C(=O)NC[C@H](C)O)cc2ncc(N3CCOCC3)nc12 (single isomer, unassigned) [Compound 246b]
Return: < 4.52

Enquiry: Record: CC(Nc1cc(F)cc(F)c1)c1cc(C(=O)N2CCNC(C(F)(F)F)C2)cc2ncc(N3CCOCC3)nc12 (stereo not drawn) [Compound 237]
Return: < 4.52

###

Give measured pKd for each item. Keep answers brief.
- TESTED ON: PI3Kβ (Homo sapiens, UniProt P42338)
- Construct: purchased DiscoveRx Corporation, San Diego (contract service, KINOMEscan)
- Sequence (P42338 whole entry): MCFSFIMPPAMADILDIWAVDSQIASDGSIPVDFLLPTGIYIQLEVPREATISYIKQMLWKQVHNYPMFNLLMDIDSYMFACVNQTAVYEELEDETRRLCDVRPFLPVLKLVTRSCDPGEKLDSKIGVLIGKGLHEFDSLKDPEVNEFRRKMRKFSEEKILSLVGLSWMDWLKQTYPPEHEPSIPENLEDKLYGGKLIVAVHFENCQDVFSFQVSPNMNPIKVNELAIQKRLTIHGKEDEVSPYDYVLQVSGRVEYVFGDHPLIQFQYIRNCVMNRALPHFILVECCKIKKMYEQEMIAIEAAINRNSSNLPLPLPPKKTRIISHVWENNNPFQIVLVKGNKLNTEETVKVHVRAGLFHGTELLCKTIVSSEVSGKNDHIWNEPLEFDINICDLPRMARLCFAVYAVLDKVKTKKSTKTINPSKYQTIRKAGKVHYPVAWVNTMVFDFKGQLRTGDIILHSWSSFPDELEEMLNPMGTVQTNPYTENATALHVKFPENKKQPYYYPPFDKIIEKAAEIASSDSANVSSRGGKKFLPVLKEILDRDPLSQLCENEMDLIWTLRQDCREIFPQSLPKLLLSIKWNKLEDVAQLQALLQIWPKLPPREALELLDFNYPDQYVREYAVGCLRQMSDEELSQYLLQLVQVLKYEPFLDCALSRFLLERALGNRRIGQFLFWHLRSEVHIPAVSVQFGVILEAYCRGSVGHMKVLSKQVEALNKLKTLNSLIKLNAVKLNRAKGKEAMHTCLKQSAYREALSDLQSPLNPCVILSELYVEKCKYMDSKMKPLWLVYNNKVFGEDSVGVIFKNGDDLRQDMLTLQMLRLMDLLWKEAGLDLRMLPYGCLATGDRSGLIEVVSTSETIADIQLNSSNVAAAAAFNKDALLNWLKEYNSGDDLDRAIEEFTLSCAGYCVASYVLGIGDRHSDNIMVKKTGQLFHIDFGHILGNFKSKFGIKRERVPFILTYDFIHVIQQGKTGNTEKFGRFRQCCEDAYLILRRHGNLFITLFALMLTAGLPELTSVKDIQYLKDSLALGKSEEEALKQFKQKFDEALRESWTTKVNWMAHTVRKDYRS
- PROTOCOL: Enzyme binding assay (KINOMEscan, DiscoveRx)
- EXPERIMENTAL PARAMETERS: PIK3Cβ_h, read-out: Kd PIK3Cβ_h
Field pKd (float): negative decimal logarithm of the concentration in molar.

Enquiry: Consider the molecule COC1CN(Cc2cc(C(C)Nc3cc(F)cc(F)c3)c3nc(N4CCOCC4)cnc3c2)CC1OC (single isomer, unassigned) [Compound 205] and give its measured pKd.
Return: 6.69

Enquiry: Could you do the same for Cc1ccc(NC(C)c2cc(C(=O)NCCO)cc3ncc(N4CCOCC4)nc23)cc1F (single isomer, unassigned) [Compound 295a] , please?
Return: 6.54

Enquiry: What do we get for Cc1c(F)cccc1CNc1cc(C(=O)NCCN(C)C)cc2ncc(N3CCOCC3)nc12 ?
Return: 9.00

Enquiry: What about this molecule? CNCCNC(=O)c1cc(C2CCCN2c2cc(F)cc(F)c2)c2nc(N3CCOCC3)cnc2c1 (centres unmarked) [Compound 72]
Return: 9.70

Enquiry: Next up: CC(Sc1ccccc1)c1cc(C(=O)N(C)C)cc2ncc(N3CCOCC3)nc12 (centres unmarked)
Return: 6.71

###

- TESTED ON: kinase enzymes (Homo sapiens, UniProt P48736)
- Construct: purchased DiscoveRx Corporation, San Diego (contract service, KINOMEscan)
- Sequence (P48736 whole entry): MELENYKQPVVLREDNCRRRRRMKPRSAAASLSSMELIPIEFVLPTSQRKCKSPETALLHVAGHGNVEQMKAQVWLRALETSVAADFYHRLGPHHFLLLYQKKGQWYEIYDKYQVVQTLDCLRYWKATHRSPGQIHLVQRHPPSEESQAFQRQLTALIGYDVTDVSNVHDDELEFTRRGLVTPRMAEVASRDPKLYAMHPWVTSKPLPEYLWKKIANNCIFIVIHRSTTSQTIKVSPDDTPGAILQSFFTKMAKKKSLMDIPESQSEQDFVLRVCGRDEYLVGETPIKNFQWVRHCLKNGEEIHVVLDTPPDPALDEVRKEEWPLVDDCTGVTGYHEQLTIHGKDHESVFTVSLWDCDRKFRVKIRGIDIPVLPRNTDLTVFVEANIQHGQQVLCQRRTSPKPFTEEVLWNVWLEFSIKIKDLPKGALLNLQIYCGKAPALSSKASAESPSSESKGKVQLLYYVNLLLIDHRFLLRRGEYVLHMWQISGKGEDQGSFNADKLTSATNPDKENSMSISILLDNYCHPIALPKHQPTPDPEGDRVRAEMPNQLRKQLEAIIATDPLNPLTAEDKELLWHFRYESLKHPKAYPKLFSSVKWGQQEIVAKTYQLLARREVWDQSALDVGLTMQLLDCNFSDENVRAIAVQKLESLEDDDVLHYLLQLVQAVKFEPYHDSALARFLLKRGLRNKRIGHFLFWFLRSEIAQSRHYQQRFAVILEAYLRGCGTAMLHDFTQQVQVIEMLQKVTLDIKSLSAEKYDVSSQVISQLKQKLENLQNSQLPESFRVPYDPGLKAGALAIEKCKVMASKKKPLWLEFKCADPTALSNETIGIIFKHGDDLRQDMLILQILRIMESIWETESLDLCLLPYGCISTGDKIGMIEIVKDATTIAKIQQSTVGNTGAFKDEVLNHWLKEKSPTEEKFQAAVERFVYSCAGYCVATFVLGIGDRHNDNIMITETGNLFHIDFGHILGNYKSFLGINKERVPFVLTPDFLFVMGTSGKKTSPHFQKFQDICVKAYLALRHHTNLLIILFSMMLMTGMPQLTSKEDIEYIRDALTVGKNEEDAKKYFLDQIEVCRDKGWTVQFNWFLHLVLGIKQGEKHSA
- PROTOCOL: Enzyme binding assay (KINOMEscan, DiscoveRx), further kinases of Table A
- EXPERIMENTAL PARAMETERS: PIK3Cγ_h
I'd appreciate it if you could supply Kd values for the items below.

Enquiry: Entry CC(Nc1ccc(F)c(F)c1)c1cc(C(=O)NCC2CCCN2)cc2ncc(N3CCOCC3)nc12 (single isomer, unassigned) [Compound 329a] has what Kd?
Return: 2.75 µM

Enquiry: # repeat for C[C@@H]1CN(c2cnc3cc(C(=O)N(C)C)cc(C4CCCN4c4cccc(F)c4)c3n2)CCO1 (single isomer, unassigned)
Return: > 30.2 µM

Enquiry: Same question, CC(Nc1ccc(F)c(F)c1)c1cc(C(=O)N2CC[C@@H](O)C2)cc2ncc(N3CCOCC3)nc12 (single isomer, unassigned) [Compound 300b] this time
Return: > 30.2 µM

###

Would you kindly list pIC50 for each of these compounds?
- Tested on: Akt phosphorylated at Ser473 in PC-3 cells
- PROTOCOL: Cellular assay: phosphorylation of Akt at Ser473 in PC-3 cells (MSD ELISA)
- Type: cell-based
- EXPERIMENTAL PARAMETERS: PC-3 cells, 60 min compound incubation, MSD ELISA; read-out: IC50 pAkt_S473
pIC50: −log10 of the molar value.

Enquiry: Find the recorded pIC50 belonging to CC(Nc1cc(F)cc(F)c1)c1cc(CN2CC3(C2)CS(=O)(=O)C3)cc2ncc(N3CCOCC3)nc12 (single isomer, unassigned) [Compound 161] and report it.
Return: < 6.29

Enquiry: Item: CC(Nc1cccc(F)c1)c1cc(C(=O)NC[C@@H](C)O)cc2ncc(N3CCOCC3)nc12 (single isomer, unassigned) [Compound 338b]
Return: < 6.29

Enquiry: Ok, now CCN1CCN(C(=O)c2cc(C(C)Nc3cccc(F)c3)c3nc(N4CCOCC4)cnc3c2)CC1 (single isomer, unassigned) [Compound 113]
Return: < 6.29
